Measured target: UniProtKB P10636
Method description: MCE Phenols Library screening, tau biosensor cell seeding assay (AvZ)
Assay type: cell-based
Measurement setup: puncta, replicate 1
This section presents compounds with their documented raw data 1 values.
API note: the answer field is a bare number with no unit suffix.

As a guide, the following entries are already answered.
1. O=C(/C=C/c1ccc(O)c(O)c1)O[C@@H](C(=O)O)[C@@H](O)C(=O)O [Caftaric acid] = 22545.7
2. COc1c(O)cc2oc(-c3ccc(O)c(O)c3)cc(=O)c2c1O [Nepetin] = 17608.6
3. O=c1ccc2cc(O)ccc2o1 [6-Hydroxycoumarin] = 21288.5
4. CCCCCCCCC[C@H](O)CC(=O)CCc1ccc(O)c(OC)c1 [10-Gingerol] = 15293.5
5. O=C(O)[C@H]1O[C@@H](Oc2cc(O)c3c(=O)cc(-c4ccccc4)oc3c2)[C@H](O)[C@@H](O)[C@@H]1O [Chrysin-7-O-glucuronide] = 35829.5
6. O.O.O=c1c(O)c(-c2ccc(O)c(O)c2)oc2cc(O)cc(O)c12 [Quercetin (dihydrate)] = 7625.22
7. COc1ccc(-c2coc3cc(O[C@@H]4O[C@H](CO)[C@@H](O)[C@H](O)[C@H]4O)ccc3c2=O)cc1O [Calycosin-7-O-?-D-glucoside] = 35020

Okay, now this compound:
IN: Could you tell me which raw data 1 is on file for COc1cc(C[C@@H](CO)[C@H](CO)Cc2ccc(O)c(OC)c2)ccc1O [Secoisolariciresinol] ?
OUT: 42819.5

---

This section presents compounds with their documented raw data 2 values.
Measured target: tau (Homo sapiens)
Method description: MCE Phenols Library screening, tau biosensor cell seeding assay (AvZ)
Type: cell-based
Measurement setup: puncta, replicate 2
API note: the answer field is a bare number with no unit suffix.

As a guide, the following entries are already answered.
1) COc1ccc(-c2coc3cc(O[C@@H]4O[C@H](CO)[C@@H](O)[C@H](O)[C@H]4O)ccc3c2=O)cc1O [Calycosin-7-O-?-D-glucoside] = 24797.2
2) COc1cc(O)c(C(=O)/C=C/c2ccccc2)c(OC)c1 = 12106.3
3) O=c1c(-c2ccc(O)c(O)c2)coc2c([C@@H]3O[C@H](CO)[C@@H](O)[C@H](O)[C@H]3O)c(O)ccc12 [3'-Hydroxypuerarin] = 9073.25
4) COc1cc(OC)c2c(=O)cc(-c3ccc(O)c(O)c3)oc2c1 = 33213.9

IN: Could you tell me which raw data 2 is on file for C[C@H]1O[C@@H](O[C@H]2[C@H](Oc3c(-c4ccc(O)cc4)oc4cc(O)cc(O)c4c3=O)O[C@@H](CO)[C@H](O)[C@H]2O)[C@H](O)[C@@H](O)[C@@H]1O [Kaempferol-3-O-glucorhamnoside] ?
OUT: 2076.39

IN: Could you tell me which raw data 2 is on file for "O=c1cc(-c2ccc(O)c(O)c2)oc2cc(O)c([C@@H]3O[C@H](CO)[C@@H](O)[C@H](O)[C@H]3O)c(O)c12" ?
OUT: 13213.7

IN: Could you tell me which raw data 2 is on file for "CCc1cccc(C)c1O" ?
OUT: 12646.9

---

Measured target: tau (Homo sapiens)
Method description: MCE Phenols Library screening, tau biosensor cell seeding assay (AvZ)
Type: cell-based
Measurement setup: Z score, replicate 1
Assay endpoint: Z repl 1
API note: the answer field is a bare number with no unit suffix.

As a guide, the following entries are already answered.
1. O=C(O)C(O)c1ccc(O)cc1 (stereo not shown) [p-Hydroxymandelic acid] = 0.77
2. COc1cc(CCCO)cc(OC)c1O [Dihydrosinapyl alcohol] = -0.789

IN: Could you tell me which Z repl 1 is on file for COc1cc(/C=C/COC(=O)/C=C/c2ccc(O)c(OC)c2)ccc1O [Coniferyl ferulate] ?
OUT: 0.368

IN: Could you tell me which Z repl 1 is on file for CCC1(c2ccc(O)cc2)NC(=O)N(C)C1=O (stereo not shown) [4-Hydroxymephenytoin] ?
OUT: -0.081

IN: Could you tell me which Z repl 1 is on file for COc1ccc(C(C)=O)c(O)c1O [2,3-Dihydroxy-4-methoxyacetophenone] ?
OUT: 0.385

---

This section presents compounds with their documented Z repl 1 values.
Measured target: tau (Homo sapiens, UniProt P10636)
Sequence (P10636 623-695 limits assumed): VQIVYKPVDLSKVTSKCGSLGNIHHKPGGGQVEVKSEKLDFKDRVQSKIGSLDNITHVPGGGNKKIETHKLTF
Method description: MCE Phenols Library screening, tau biosensor cell seeding assay (AvZ)
Assay type: cell-based
Measurement setup: Z score, replicate 1
API note: the answer field is a bare number with no unit suffix.

As a guide, the following entries are already answered.
1) O=c1c(O[C@@H]2O[C@H](CO[C@@H]3O[C@H](CO)[C@@H](O)[C@H](O)[C@H]3O)[C@@H](O)[C@H](O)[C@H]2O)c(-c2ccc(O)cc2)oc2cc(O)cc(O)c12 [Kaempferol 3-O-gentiobioside] = 0.421
2) CC(=O)c1cc2c(CO)cc(O)cc2oc1=O = -0.702
3) O=c1c(O)c(-c2cc(O)c(O)c(O)c2)oc2cc(O)ccc12 = -0.499

IN: Could you tell me which Z repl 1 is on file for COc1cc(-c2oc3cc(O)cc(O)c3c(=O)c2O[C@@H]2O[C@H](CO[C@@H]3O[C@@H](C)[C@H](O)[C@@H](O)[C@H]3O)[C@@H](O)[C@H](O)[C@H]2O)ccc1O [Narcissin] ?
OUT: 0.249

IN: Could you tell me which Z repl 1 is on file for Oc1ccc([C@H]2Oc3cc(O)cc(O)c3C[C@H]2O)cc1 [(-)-Epiafzelechin] ?
OUT: -0.198

IN: Could you tell me which Z repl 1 is on file for O=C(c1ccc(O)cc1)c1c(O)cc(O)c([C@@H]2O[C@H](CO)[C@@H](O)[C@H](O)[C@H]2O)c1O [Iriflophenone 3-C-glucoside] ?
OUT: 0.626

IN: Could you tell me which Z repl 1 is on file for "C=CCc1ccc(O)c(O)c1" ?
OUT: -0.394

IN: Could you tell me which Z repl 1 is on file for "COc1ccc(-c2cc(=O)c3c(O)c(OC)c(OC)cc3o2)cc1OC" ?
OUT: 0.14

IN: Could you tell me which Z repl 1 is on file for O=C(O[C@@H]1Cc2c(O)cc(O)cc2O[C@@H]1c1cc(O)c(=O)c2c(O)c(O)cc([C@H]3Oc4cc(O)cc(O)c4C[C@H]3O)c2c1)c1cc(O)c(O)c(O)c1 [Theaflavin-3-gallate] ?
OUT: -2.035

IN: Could you tell me which Z repl 1 is on file for "C=CCc1ccc(O)c(OC)c1" ?
OUT: -0.386

IN: Could you tell me which Z repl 1 is on file for O=C(O[C@@H]1Cc2c(O)cc(O)cc2O[C@@H]1c1cc(O)c(O)c(O)c1)c1cc(O)c(O)c(O)c1 [(-)-Epigallocatechin Gallate] ?
OUT: -2.044

IN: Could you tell me which Z repl 1 is on file for "O=C(CCc1ccc(O)cc1)c1c(O)cc(O)cc1O[C@@H]1O[C@H](CO)[C@@H](O)[C@H](O)[C@H]1O" ?
OUT: -0.297

IN: Could you tell me which Z repl 1 is on file for "CC(C)=CCc1c(-c2ccc(O)cc2O)oc2c3c(cc(O)c2c1=O)OC(C)(C)C=C3" ?
OUT: -0.601

IN: Could you tell me which Z repl 1 is on file for "Oc1ccc(/C=C/c2cc(O)cc(O)c2)cc1" ?
OUT: -0.355

IN: Could you tell me which Z repl 1 is on file for "CC(C)(c1ccc(O)cc1)c1ccc(O)cc1" ?
OUT: 0.124

IN: Could you tell me which Z repl 1 is on file for COc1ccc(-c2oc3c(CC=C(C)C)c(O[C@@H]4O[C@H](CO)[C@@H](O)[C@H](O)[C@H]4O)cc(O)c3c(=O)c2O[C@@H]2O[C@@H](C)[C@H](O)[C@@H](O)[C@H]2O[C@@H]2O[C@H](CO)[C@@H](O)[C@H](O)[C@H]2O)cc1 [Epimedin A] ?
OUT: -1.302

IN: Could you tell me which Z repl 1 is on file for "O=c1c(O[C@@H]2OC[C@H](O)[C@H](O)[C@H]2O)c(-c2ccc(O)c(O)c2)oc2cc(O)cc(O)c12" ?
OUT: -0.067

IN: Could you tell me which Z repl 1 is on file for O=c1cc(-c2ccc(O)cc2)oc2cc(O)c([C@@H]3O[C@H](CO)[C@@H](O)[C@H](O)[C@H]3O[C@@H]3OC[C@H](O)[C@H](O)[C@H]3O)c(O)c12 [Isovitexin 2''-O-arabinoside] ?
OUT: -0.906

IN: Could you tell me which Z repl 1 is on file for O=C(/C=C/c1ccc(O)c(O)c1)OC[C@H]1O[C@@H](OCCc2ccc(O)c(O)c2)[C@H](O)[C@@H](O)[C@@H]1O [Calceolarioside B] ?
OUT: 0.11

IN: Could you tell me which Z repl 1 is on file for "COc1cc(O)ccc1/C=C/C(=O)c1ccc(O)cc1" ?
OUT: -1.092

IN: Could you tell me which Z repl 1 is on file for "CCCCCC/C=C\CCCCCCCCCc1cccc(O)c1C(=O)O" ?
OUT: 0.386

IN: Could you tell me which Z repl 1 is on file for "COc1cc(O)cc(O)c1C(=O)/C=C/c1ccccc1" ?
OUT: -0.394

IN: Could you tell me which Z repl 1 is on file for COc1cc(CNC(=O)CCCCCCCC(C)C)ccc1O [Homodihydrocapsaicin I] ?
OUT: -0.665

IN: Could you tell me which Z repl 1 is on file for "O=C1C[C@@H](c2ccc(O[C@@H]3O[C@H](CO)[C@@H](O)[C@H](O)[C@H]3O)cc2)Oc2cc(O)ccc21" ?
OUT: 0.131

IN: Could you tell me which Z repl 1 is on file for O=C1c2c(O)cc(O)cc2O[C@H](c2ccc(O)cc2)[C@H]1O [Dihydrokaempferol] ?
OUT: -0.147

All figures here come from paper PMC11784839.
